assay-comment: Observed volume of distribution at steady state in rat at 1 mg/kg, iv
Type: ADME, organism-based
test-parameters: in vivo, read-out: Vdss
Please go through the items and note down their Vd.
Lab book: enter the figure in L/kg, no units written.

Incoming: Return reported Vd. Input compound: CCn1nc(C)cc1C(=O)/N=c1\[nH]c2cc(-c3ncn[nH]3)cc(OC)c2n1C/C=C/Cn1/c(=N/C(=O)c2cc(C)nn2CC)[nH]c2cc(C(N)=O)cc(OCCCN3CCOCC3)c21
Outgoing: 0.722

Incoming: Specify reported Vd for the compound shown: CCn1nc(C)cc1C(=O)Nc1nc2cc(C(N)=O)cc(OC)c2n1C/C=C/Cn1c(NC(=O)c2cc(C)nn2CC)nc2cc(C(N)=O)cc(OCCCN3CCOCC3)c21
Outgoing: 0.965

---

Exercise: state measured fold change (FC) for each of the compounds provided.
study-system: Stimulator of interferon genes protein (Mus musculus)
assay-comment: Activation of mouse STING expressed in RAW-Lucia ISG cells at 50 uM incubated for 24 hrs by QUANTI-Luc luciferase reporter gene assay relative to control
test-parameters: filed as activator
Response field accepts a number only; no unit should be typed.

Incoming: State its fold change (FC): CCn1nc(C)cc1CCc1nc2cc(C(N)=O)cc(OC)c2n1C/C=C/Cn1c(CCc2cc(C)nn2CC)nc2cc(C(N)=O)cc(OCCCN3CCOCC3)c21
Outgoing: 0.9

Incoming: Report measured fold change (FC); entry is CCn1nc(C)cc1C(=O)/N=c1\[nH]c2cc(-c3ncn[nH]3)cc(OC)c2n1[C@H]1CC[C@H](n2/c(=N/C(=O)c3cc(C)nn3CC)[nH]c3cc(C(N)=O)cc(OCCCN4CCOCC4)c32)CC1
Outgoing: 0.48

Incoming: Quote fold change (FC) reported for CCn1nc(C)cc1/C=C/c1nc2cc(C(N)=O)cc(OC)c2n1C/C=C/Cn1c(/C=C/c2cc(C)nn2CC)nc2cc(C(N)=O)cc(OCCCN3CCOCC3)c21 please.
Outgoing: 0.96

Incoming: Specify measured fold change (FC) for CCn1nc(C)cc1C(=O)/N=c1\[nH]c2cc(-c3ncn[nH]3)cc(OC)c2n1C/C=C/Cn1/c(=N/C(=O)c2cc(C)nn2CC)[nH]c2cc(C(N)=O)cc(OCCCO)c21 .
Outgoing: 0.96

Incoming: Give reported fold change (FC) value for CCn1nc(C)cc1C(=O)/N=c1\[nH]c2cc(-c3cn(CCOCCOC)nn3)cc(OC)c2n1C/C=C/Cn1/c(=N/C(=O)c2cc(C)nn2CC)[nH]c2cc(C(N)=O)cc(OCCCN3CCOCC3)c21
Outgoing: 1.16
